This collection of values is drawn from patent US8808702B2.

Tested on: K562 (chronic myelogenous leukaemia)
Test: Effect of compounds on tumor cell lines (assay of Latham et al.), K562
Assay type: cell-based
Conditions: K562 cells, 96 hours after treatment, 1 μM to 100 μM; read-out: K 562 potency (IC50)
Measured IC50 values are reported for all entries that follow.

[
  {
    "smiles-code": "O=C(/C(=C\\c1ccc(O)c([N+](=O)[O-])c1)SCc1ccc(Br)cc1)c1ccc([N+](=O)[O-])c(Cl)c1",
    "test-result": "1 to 10 µM"
  }
]

Note IC50 for the compound shown: CCOc1ccc(C=C(SCc2ccc(F)cc2)C(=O)c2ccc(Br)cc2)cc1OC
1 to 10 µM

Note IC50 for the compound shown: O=C(/C(=C\c1ccc(O)c([N+](=O)[O-])c1)SCc1ccc(Br)cc1)c1ccc(Cl)cc1Cl
1 to 10 µM

Note IC50 for the compound shown: Cc1cc(C)cc(C=C(SCc2ccc(Cl)cc2)C(=O)c2ccc(Cl)cc2)c1
10 to 25 µM

---

quantity: melting point

Note melting point for the compound shown: COc1ccsc1/C=C(\C(=O)c1ccc(Br)cc1)S(=O)(=O)Cc1ccc(Cl)cc1
128 to 136 °C

---

quantity: melting point

The cases that follow already have their melting point on record.
[
  {
    "smiles-code": "Cc1ccc(CS(=O)(=O)/C(=C/c2cc(C)ccc2C)C(=O)c2ccc(Cl)cc2)cc1",
    "test-result": "176 to 182 °C"
  },
  {
    "smiles-code": "O=C(/C(=C\\c1ccc(O)cc1)S(=O)(=O)Cc1ccc(F)cc1)c1ccc(Br)cc1",
    "test-result": "188 to 192 °C"
  },
  {
    "smiles-code": "O=C(/C(=C\\c1cc([N+](=O)[O-])ccc1F)S(=O)(=O)Cc1ccc(F)cc1)c1ccc(Br)cc1",
    "test-result": "172 to 177 °C"
  }
]

Proceeding to the next molecule to report its melting point.
Note melting point for the molecule shown: Cc1ccc(CS(=O)(=O)/C(=C/c2ccc(N(C)C)cc2)C(=O)c2ccc(Cl)cc2)cc1
150 to 154 °C

---

Tested on: K562 (chronic myelogenous leukaemia)
Assay: Effect of compounds on tumor cell lines (assay of Latham et al.), K562
Type: cell-based
Details: K562 cells, 96 hours after treatment, 1 μM to 100 μM; read-out: K 562 potency (IC50)
Measured IC50 values are reported for all entries that follow.

[
  {
    "smiles-code": "CCN(CC)CCOc1ccc(C(=O)/C(=C\\c2ccc(F)c([N+](=O)[O-])c2)SCc2ccc(F)cc2)cc1",
    "IC50": "≤ 1 µM"
  },
  {
    "smiles-code": "NS(=O)(=O)c1ccc(C(=O)/C(=C\\c2ccc(F)c([N+](=O)[O-])c2)SCc2ccc(F)cc2)cc1",
    "IC50": "1 to 10 µM"
  },
  {
    "smiles-code": "COc1ccc(/C=C(/SCc2ccc(OC)cc2)C(=O)c2ccc(Cl)cc2)cc1",
    "IC50": "1 to 10 µM"
  }
]

Note IC50 for the compound shown: O=C(/C(=C\c1ccc(O)c([N+](=O)[O-])c1)SCc1ccc(Br)cc1)c1ccc(C(F)(F)F)cc1
1 to 10 µM

Note IC50 for the compound shown: O=C(C(=Cc1c[nH]c2ccccc12)SCc1ccc(Cl)cc1Cl)c1ccc(Cl)cc1
10 to 25 µM

---

Test system: K562 (chronic myelogenous leukaemia)
Assay: Effect of compounds on tumor cell lines (assay of Latham et al.), K562
Assay type: cell-based
Conditions: K562 cells, 96 hours after treatment, 1 μM to 100 μM; read-out: K 562 potency (IC50)
pIC50: −log10 of the molar value.
Measured pIC50 values are reported for all entries that follow.

[
  {
    "compound": "COc1cc(C(=O)/C(=C\\c2ccc(O)c([N+](=O)[O-])c2)SCc2ccc(Br)cc2)cc(OC)c1OC [Example 178]",
    "quantity": "pIC50",
    "test-result": "5.00 to 6.00"
  },
  {
    "compound": "O=C(O)c1ccc(C(=O)C(=Cc2ccc(O)c(Br)c2)SCc2ccc(Br)cc2)cc1 [Example 150]",
    "quantity": "pIC50",
    "test-result": "4.30 to 4.60"
  },
  {
    "compound": "Cc1ccsc1C=C(SCc1ccc(Cl)cc1)C(=O)c1ccc([N+](=O)[O-])cc1 [Example 207]",
    "quantity": "pIC50",
    "test-result": "< 4.00"
  }
]

Note pIC50 for the compound shown: COc1cc(OC)c(C=C(SCc2ccc(Cl)cc2)C(=O)c2ccc([N+](=O)[O-])cc2)c(OC)c1 [Example 194]
4.00 to 4.30

Note pIC50 for the compound shown: Cc1cc(C)cc(C=C(SCc2ccc(F)cc2)C(=O)c2ccc(Br)cc2)c1 [Example 242]
5.00 to 6.00

Note pIC50 for the compound shown: CN1CCN(CCNC(=O)c2ccc(C(=O)/C(=C\c3ccc(F)c([N+](=O)[O-])c3)SCc3ccc(F)cc3)cc2)CC1 [Example 337]
4.60 to 5.00

---

Measured IC50 values are reported for all entries that follow.
Tested on: K562 (chronic myelogenous leukaemia)
Experiment: Effect of compounds on tumor cell lines (assay of Latham et al.), K562
Type: cell-based
Conditions: K562 cells, 96 hours after treatment, 1 μM to 100 μM; read-out: K 562 potency (IC50)

The cases that follow already have their IC50 on record.
[
  {
    "molecule": "COc1ccc(C=C(SCc2ccc(Cl)cc2)C(=O)c2ccc(C(=O)O)cc2)cc1 [Example 227]",
    "IC50": "25 to 50 µM"
  },
  {
    "molecule": "COc1cc(/C=C(/SCc2ccc(Br)cc2)C(=O)c2ccc(Br)cc2)cc([N+](=O)[O-])c1O [Example 174]",
    "IC50": "25 to 50 µM"
  },
  {
    "molecule": "Cc1ccc(C=C(SCc2ccc(Cl)cc2)C(=O)c2ccc(Cl)cc2)s1 [Example 230]",
    "IC50": "50 to 100 µM"
  }
]

Proceeding to the next molecule to report its IC50.
Note IC50 for the molecule shown: Cc1ccc(CSC(=Cc2cc(Cl)cc(Cl)c2)C(=O)c2ccc(Cl)cc2)cc1 [Example 281]
10 to 25 µM

---

Measured pIC50 values are reported for all entries that follow.
Test system: DU145 (prostate cancer)
Experiment: Effect of compounds on tumor cell lines (assay of Latham et al.), DU145
Assay type: cell-based
Conditions: DU145 cells, 96 hours after treatment, 1 μM to 100 μM; read-out: DU 145 potency (IC50)
pIC50: −log10 of the molar value.

The cases that follow already have their pIC50 on record.
[
  {
    "compound": "O=C(/C(=C\\c1ccc(F)c([N+](=O)[O-])c1)SCc1ccc(F)cc1)c1ccc(SCc2ccc(F)cc2)c([N+](=O)[O-])c1 [Example 335]",
    "assay-system": "DU145 (prostate cancer)",
    "quantity": "pIC50",
    "test-result": "4.60 to 5.00"
  },
  {
    "compound": "O=C(O)c1ccc(C(=O)C(=Cc2ccc(Br)c([N+](=O)[O-])c2)SCc2ccc(Cl)cc2Cl)cc1 [Example 299]",
    "assay-system": "DU145 (prostate cancer)",
    "quantity": "pIC50",
    "test-result": "5.00 to 6.00"
  },
  {
    "compound": "O=C(/C(=C\\c1cc(I)c(O)c(I)c1)SCc1ccc(Br)cc1)c1ccc(Br)cc1 [Example 173]",
    "assay-system": "DU145 (prostate cancer)",
    "quantity": "pIC50",
    "test-result": "5.00 to 6.00"
  },
  {
    "compound": "Cc1ccsc1C=C(SCc1ccc(Cl)cc1)C(=O)c1ccc(Cl)cc1 [Example 206]",
    "assay-system": "DU145 (prostate cancer)",
    "quantity": "pIC50",
    "test-result": "4.00 to 4.30"
  },
  {
    "compound": "O=C(O)c1ccc(C(=O)/C(=C\\c2ccc(F)c([N+](=O)[O-])c2)SCc2nc3ccc(Br)cc3[nH]2)cc1 [Example 352]",
    "assay-system": "DU145 (prostate cancer)",
    "quantity": "pIC50",
    "test-result": "5.00 to 6.00"
  },
  {
    "compound": "O=C(/C(=C\\c1ccc(F)c([N+](=O)[O-])c1)SCc1ccc(F)cc1)c1ccc(O)cc1 [Example 342]",
    "assay-system": "DU145 (prostate cancer)",
    "quantity": "pIC50",
    "test-result": "≥ 6.00"
  },
  {
    "compound": "O=C(/C(=C\\c1ccc(F)c([N+](=O)[O-])c1)SCc1ccc(F)cc1)c1ccc(OCCCN2CCOCC2)cc1 [Example 340]",
    "assay-system": "DU145 (prostate cancer)",
    "quantity": "pIC50",
    "test-result": "5.00 to 6.00"
  },
  {
    "compound": "O=C(C(=Cc1ccc(F)c([N+](=O)[O-])c1)SCc1ccc(Br)cc1)c1ccc(C(=O)N2CCN(CCO)CC2)cc1 [Example 316]",
    "assay-system": "DU145 (prostate cancer)",
    "quantity": "pIC50",
    "test-result": "≥ 6.00"
  }
]

Look up and report pIC50, with DU145 (prostate cancer) as system, for O=C(O)c1ccc(C(=O)C(=Cc2ccccc2F)SCc2ccc(Br)cc2)cc1 [Example 306]
4.60 to 5.00

Look up and report pIC50, with DU145 (prostate cancer) as system, for O=C(C(=Cc1cccnc1)SCc1ccc(Cl)cc1)c1ccc(Cl)cc1 [Example 322]
5.00 to 6.00

Look up and report pIC50, with DU145 (prostate cancer) as system, for CCOc1cc(C=C(SCc2ccc(Cl)cc2Cl)C(=O)c2ccc(Cl)cc2)ccc1O [Example 117]
4.60 to 5.00

Look up and report pIC50, with DU145 (prostate cancer) as system, for Cc1ccc(CSC(=Cc2cccc(Cl)c2Cl)C(=O)c2ccc(Cl)cc2)cc1 [Example 271]
4.30 to 4.60

Look up and report pIC50, with DU145 (prostate cancer) as system, for COc1ccccc1C=C(SCc1ccc(F)cc1)C(=O)c1ccc(Cl)cc1 [Example 240]
4.60 to 5.00

Look up and report pIC50, with DU145 (prostate cancer) as system, for O=C(C(=Cc1ccc[nH]1)SCc1ccc(Cl)cc1)c1ccc(Cl)cc1 [Example 201]
4.30 to 4.60

Look up and report pIC50, with DU145 (prostate cancer) as system, for Cc1cc(C)cc(C=C(SCc2ccc(Br)cc2)C(=O)c2ccc(Cl)cc2)c1 [Example 149]
4.60 to 5.00

Look up and report pIC50, with DU145 (prostate cancer) as system, for Cc1ccc(CSC(=Cc2ccc(Cl)c([N+](=O)[O-])c2)C(=O)c2ccc(C(=O)O)cc2)cc1 [Example 287]
5.00 to 6.00
